Cited source: patent US5328922A

target: 5-HT receptor that has the characteristics of a 5-HT1C receptor (Rattus norvegicus, UniProt P30994); construct: from tissue; host or cells: rat stomach fundus strips; experiment: Rat stomach fundus: 5-HT1C antagonist action (inhibition of 5-HT-induced contractions); settings: rat stomach strips; test drug 10^-6 M for 30 mins; 5-HT dose-response; read-out: apparent dissociation constant, KB
Sequence (P30994 whole entry): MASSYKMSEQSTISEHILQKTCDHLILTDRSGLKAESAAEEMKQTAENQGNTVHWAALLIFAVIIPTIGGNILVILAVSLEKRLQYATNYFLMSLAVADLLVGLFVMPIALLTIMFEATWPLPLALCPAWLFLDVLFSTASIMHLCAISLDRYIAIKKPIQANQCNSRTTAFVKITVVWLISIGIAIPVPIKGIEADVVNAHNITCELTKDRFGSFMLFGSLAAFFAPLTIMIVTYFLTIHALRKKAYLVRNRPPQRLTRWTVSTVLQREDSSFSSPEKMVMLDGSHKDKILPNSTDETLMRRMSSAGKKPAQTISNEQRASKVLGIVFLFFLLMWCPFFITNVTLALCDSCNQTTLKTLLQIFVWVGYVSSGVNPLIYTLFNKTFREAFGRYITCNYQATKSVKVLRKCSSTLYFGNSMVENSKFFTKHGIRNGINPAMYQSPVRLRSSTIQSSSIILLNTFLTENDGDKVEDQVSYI
Counter-ions that a name gives are not always drawn.
Tag: Condition met if measured Kb is not below 0.2 µM, Condition not met if it is.

{"compound": "Cn1ccc2ccc(NC(=O)Nc3cccnc3)cc21 [E6, hydrochloride]", "cat": "Condition not met"}

Exam item: Could you please find out whether Cc1c(C)n(C)c2ccc(NC(=O)Nc3cccnc3)cc12 [E3, hydrochloride] has Kb that meets 0.2 µM or exceeds it?
Marked response: Condition not met

Exam item: // same read-out, input: CCCn1ccc2cc(NC(=O)Nc3cccnc3)ccc21 [E4, oxalate]
Marked response: Condition met

Exam item: What about this compound? CCc1c(C)n(C)c2ccc(NC(=O)Nc3cccnc3)cc12 [E1, hydrochloride]
Marked response: Condition not met

Exam item: Try the compound Cn1ccc2c(NC(=O)Nc3cccnc3)cccc21 [E5, hydrochloride]
Marked response: Condition met

Exam item: Same thing, different compound: Cl.Cn1ccc2cc(NC(=O)Nc3cccnc3)ccc21 [E2, hydrochloride]
Marked response: Condition not met
